- Test system: PANC1 (pancreatic carcinoma) cells, p53R273H
- Format: cell-based
- Assay setup: 48 h
Where a SMILES comes first, the peptide text is derived from it. Bridges are numbered along the chain shown (N, C = ends). [ ]: non-standard residue; d: D form. The star is where a group is joined. Stearoyl = CCCCCCCCCCCCCCCCCC(=O)*; Dab = NCC[C@H](N)C(=O)O
Measured parameter: IC50 (nM)

[
  {
    "Compound": "CCCCCCCCCCCCCCCCCC(=O)N[C@@H](CCCNC(=N)N)C(=O)N[C@@H](CCCNC(=N)N)C(=O)N[C@@H](Cc1c[nH]cn1)C(=O)N[C@@H](CO)C(=O)N[C@@H]1CCCCNC(=O)[C@H](CC(=O)O)NC(=O)[C@@H]2CCCN2C(=O)[C@H](CCN)NC(=O)[C@H]2CCCN2C1=O [pCAP-724, str-RRHSkp(Dab)PD-Cyc] (Stearoyl-RRHS[dK][dP][Dab]PD; lactam 5-C)",
    "Study system": "PANC1 (pancreatic carcinoma) cells, p53R273H",
    "Measured parameter": "IC50",
    "Obs value": 1020
  }
]

* * *

- Tested on: PANC1 (pancreatic carcinoma) cells, p53R273H
- Type: cell-based
- Assay setup: 48 h
Where a SMILES comes first, the peptide text is derived from it. Bridges are numbered along the chain shown (N, C = ends). [ ]: non-standard residue; d: D form. The star is where a group is joined. Stearoyl = CCCCCCCCCCCCCCCCCC(=O)*; Dab = NCC[C@H](N)C(=O)O
Measured parameter: IC50

[
  {
    "Compound": "CCCCCCCCCCCCCCCCCC(=O)N[C@@H](CC(=O)O)C(=O)N1CCC[C@H]1C(=O)N[C@@H](Cc1c[nH]cn1)C(=O)N[C@H]1CCCCNC(=O)[C@H](CCCNC(=N)N)NC(=O)[C@H](CCN)NC(=O)[C@H](CCCNC(=N)N)NC(=O)[C@@H]2CCCN2C(=O)[C@H](CO)NC1=O [pCAP-725, str-DPHKSPR(Dab)R-Cyc, reference compound] (Stearoyl-DPHKSPR[Dab]R; lactam 4-C)",
    "Obs value": "> 40 µM"
  },
  {
    "Compound": "CCCCCCCCCCCCCCCCCC(=O)N[C@@H](CCCNC(=N)N)C(=O)N[C@@H](CCCNC(=N)N)C(=O)N[C@@H](Cc1c[nH]cn1)C(=O)N[C@@H](CO)C(=O)N[C@@H](C(=O)N1CCC[C@H]1C(=O)N[C@@H](CCN)C(=O)N1CCC[C@H]1C(=O)N[C@@H](CC(=O)O)C(N)=O)C(C)C [pCAP-717, str-RRHSvP(Dab)PD-NH2] (Stearoyl-RRHS[dV]P[Dab]PD-NH2)",
    "Obs value": "2.15 µM"
  },
  {
    "Compound": "CCCCCCCCCCCCCCCCCC(=O)N[C@@H](CCCNC(=N)N)C(=O)N[C@@H](CC(=O)O)C(=O)N1CCC[C@H]1C(=O)N[C@@H](Cc1c[nH]cn1)C(=O)N[C@@H](C(=O)N[C@@H](CO)C(=O)N1CCC[C@H]1C(=O)N[C@@H](CCCNC(=N)N)C(=O)N[C@@H](CCN)C(N)=O)C(C)C [pCAP-723, str-RDPHvSPR(Dab)-NH2, reference compound] (Stearoyl-RDPH[dV]SPR[Dab]-NH2)",
    "Obs value": "> 40 µM"
  }
]
